Target: ALX4 R272P (mouse cDNA (human protein sequence …, UniProt O35137 158-291, R260P))
Sequence (O35137 158-291 R260P): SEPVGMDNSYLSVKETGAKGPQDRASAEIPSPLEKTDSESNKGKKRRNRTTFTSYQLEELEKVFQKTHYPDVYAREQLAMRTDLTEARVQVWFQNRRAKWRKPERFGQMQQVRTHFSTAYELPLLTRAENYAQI
Test: ITC
readout_label: Kd
Numeric answer plus unit only.

For the binder 14-mer monomer site ITC duplex (dsDNA) DNA 1: CGCTAATTAGCTCG DNA 2: CGAGCTAATTAGCG , give its measured Kd value.
43.6 nM
